Origin of values: patent US4472404A

- Test system: Klebsiella pneumoniae M-2
- Protocol notes: Minimum inhibitory concentration, urinary tract organisms (Example 13)
- Type: cell-based
- Test context: M2, Kp M-2, read-out: Minimum Inhibitory Concentration
Exam item: assign TRUE to entries whose MIC is below 50 µg/mL and FALSE to entries at or above 50 µg/mL. Note that a value of exactly 50 µg/mL receives FALSE.

Reference set (5 entries):
O=C(NCCCl)Oc1ccc(Cl)c2cccnc12
FALSE
CCOC(=O)CNC(=O)Oc1cccc2ccc(C)nc12
FALSE
CCOC(=O)CNC(=O)Oc1c(Br)cc(Br)c2cccnc12
TRUE
CCOC(=O)CNC(=O)Oc1ccc(Cl)c2cccnc12.CS(=O)(=O)O
FALSE
CCOC(=O)CNC(=O)Oc1cccc2cccnc12
FALSE

Qu. Regarding `CCOC(=O)CNC(=O)Oc1ccc([N+](=O)[O-])c2cccnc12` , kindly confirm whether its MIC is beneath 50 µg/mL.
Ans. TRUE

Qu. Regarding `CCOC(=O)CNC(=O)Oc1c(Cl)cc(Cl)c2cccnc12` , kindly confirm whether its MIC is beneath 50 µg/mL.
Ans. TRUE
